test: Cellular cytotoxicity assay (Alamar Blue/Resazurin), HeLa; type: cell-based; conditions: human, HeLa cells, 72 hours incubation, Resazurin, read-out: HeLa Cytotoxicity [pIC50] (converted)
Structures can show the parent of a compound that is named as a salt.
Please go through the items and note down their IC50 at 72 h.

Read off the recorded IC50 at 72 h for COCCCNC(=O)N1CCc2cc(C(=O)NO)ccc2C1
> 100 µM

Read off the recorded IC50 at 72 h for O=C(NO)c1ccc2c(c1)CCN(C(=O)Cc1c[nH]c3ccccc13)C2 [Example 1, hydrochloride]
1 to 100 µM

Read off the recorded IC50 at 72 h for O=C(NO)c1ccc2c(c1)CCN(C(=O)Cc1cccnc1)C2 [Example 8, hydrochloride]
> 100 µM

###

Please go through the items and note down their IC50 at 72 h.
assay: Cellular cytotoxicity assay (Alamar Blue/Resazurin), RKOp21; assay type: cell-based; conditions: human, RKOp21 cells; RKOp21, 72 hours incubation, Resazurin; read-out: RKOp21 Cytotoxicity [pIC50] (converted)
Structures can show the parent of a compound that is named as a salt.

Read off the recorded IC50 at 72 h for COc1ccc2[nH]c(C(=O)N3CCc4ccc(C(=O)NO)cc4C3)cc2c1
1 to 100 µM

Read off the recorded IC50 at 72 h for O=C(NO)c1ccc2c(c1)CCN(C(=O)C1CCOC1)C2 (centres unmarked)
> 100 µM

Read off the recorded IC50 at 72 h for COCCCNC(=O)N1CCc2cc(C(=O)NO)ccc2C1
> 100 µM

Read off the recorded IC50 at 72 h for COCCCOC(=O)N1CCc2cc(C(=O)NO)ccc2C1
> 100 µM

Read off the recorded IC50 at 72 h for CN(C)CCCC(=O)N1CCc2cc(C(=O)NO)ccc2C1 [Example 9, hydrochloride]
> 100 µM
